Test system: Hs-578T
measurement-protocol: NCI tumour cell line growth inhibition, 48 h
Calls of active or inactive are those of the source. Rule as the data show it: active = GI50 up to about 1.1 µM and inactive = higher.
endpoint: GI50

Quickly give me recorded GI50 for "Nc1ccc2c(c1)C(=O)c1c(F)cccc1-2"
27.9 µM (inactive)

Quickly give me recorded GI50 for "Nc1cc(F)ccc1CC(=O)O"
> 100 µM (inactive)

Quickly give me recorded GI50 for "O=C1C[C@H]2[C@H](c3ccc(Br)cc3)[C@H]3C(=O)c4ccccc4NC(=O)[C@@H]3[C@@]2(O)c2ccccc2N1"
48 µM (inactive)

Quickly give me recorded GI50 for "CCc1nnc(S)n1/N=C\c1ccc(-c2ccccc2[N+](=O)[O-])o1"
37.4 µM (inactive)

Quickly give me recorded GI50 for "O=C1c2cccc3cc([N+](=O)[O-])cc(c23)C(=O)N1O"
38.7 µM (inactive)

Data credit: ChEMBL document CHEMBL1201862
